Tested on: M14 melanoma
ASSAY_REMARKS: NCI tumour cell line growth inhibition, 48 h; in the data active means GI50 below about 0.43 µM; inactive means the rest
A correct response names exactly one class from class 1 = active, class 0 = inactive

Examples with answers:
COc1cccc2c(=O)c3c(sc12)c(NCCN(C)C)nc1ccccc13: class 0
NCCCCN(Cc1nc2ccccc2[nH]1)[C@H]1CCCc2cccnc21: class 0
Clc1ccc2c(c1)-c1ccccc1C1=NCCN12: class 0
COC(=O)[C@@]1(O)C[C@H]2O[C@]1(C)n1c3ccccc3c3c4c(c5c6ccccc6n2c5c31)C(=O)NC4: class 1

[Q] Each molecule tested received a call. Report the one for CS(=O)(=O)Nc1cc(-c2ccc3ncnc(Nc4ccc5c(cnn5Cc5ccccc5F)c4)c3c2)cnc1Cl .
[A] class 0

[Q] Each molecule tested received a call. Report the one for N=C(N)c1ccc(-c2ccc(-c3cccs3)s2)nc1 .
[A] class 0

[Q] Each molecule tested received a call. Report the one for C=C1CC[C@@H]2[C@](C)(COC(C)=O)[C@H](OC(C)=O)CC[C@@]2(C)[C@@H]1C/C=C1/C(=O)OC[C@H]1OC(C)=O .
[A] class 0

[Q] Each molecule tested received a call. Report the one for CCOC(=O)C#Cc1c(CC(=O)OCC)nnn1[C@H]1O[C@@H](CO)[C@@H]2OC(C)(C)O[C@@H]21 .
[A] class 0

---

Tested on: MOLT-4 leukemia
ASSAY_REMARKS: NCI tumour cell line growth inhibition, 48 h
I'd be grateful if you could share measured TGI for these entries.

Previously resolved entries follow.
CC(C)(C)N(Cc1ccoc1)C(=O)/C=C\S(=O)c1ccccc1 (stereo not drawn): > 100 µM
O=Cc1ccc(-c2cccc([N+](=O)[O-])c2)s1: > 100 µM
c1ccc2c3c([nH]c2c1)C1(CCCCC1)c1c([nH]c2ccccc12)C31CCCCC1: > 100 µM

Your task in this section: give TGI for each listed record.
1. CN(C)c1ccc(N=Nc2cccc3ncccc23)cc1
2. CC1SC(=O)SC1C (stereo not drawn)

[A]
1. > 100 µM
2. > 100 µM

---

I'd be grateful if you could share measured TGI for these entries.
Tested on: U251 CNS
ASSAY_REMARKS: NCI tumour cell line growth inhibition, 48 h
One number for each entry, in µM.

CCSC(=O)/C=C1\CN(C(=O)OC(C)(C)C)C1C(=O)OC(C)(C)C (stereo not given): 19.2

# input for lookup
So for CC(C)CCc1c(Cl)nc(Cl)nc1Cl , the logged TGI turned out to be 24.4

---

Tested on: PC-3 prostate
ASSAY_REMARKS: NCI tumour cell line growth inhibition, 48 h
I'd be grateful if you could share measured TGI for these entries.
Numbers only, in µM.

CSC(=S)OC1C(CO[Si](C)(C)C(C)(C)C)OC2OC(C)(C)OC21 (stereo not given): 38.4

# input for lookup
So for CN1CCN(CCCCN2c3ccccc3Sc3ccc(N=[N+]=[N-])cc32)CC1 , the logged TGI turned out to be 15.9

---

Test system: HCT-116 colon
ASSAY_REMARKS: NCI tumour cell line growth inhibition, 48 h; in the data active = GI50 below about 0.43 µM; inactive = the rest
A correct response names exactly one class from active, inactive

Examples with answers:
COc1cccc2c(=O)c3c(sc12)c(NCCN(C)C)nc1ccccc13: inactive
CN1CCn2c(c(Sc3ccc(C(=O)NO)cc3)c3ccccc32)C1=O: inactive
CN(C)c1ccc(O)c2c1C[C@H]1C[C@H]3[C@H](N(C)C)C(=O)C(C(N)=O)=C(O)[C@@]3(O)C(=O)C1=C2O: inactive
Oc1ccc(N=Nc2ccc(N=Nc3ccccc3)cc2)cc1: inactive
COc1ccc2nc(C)cc(Nc3ccccc3O)c2c1: inactive
N#CC1=C(N)Oc2c(sc3c(F)cccc23)C1c1ccc(F)cc1 (centres undefined): inactive

[Q] Each compound tested received a call. Report the one for Clc1ccc2c(c1)-c1ccccc1C1=NCCN12 .
[A] inactive

[Q] Each compound tested received a call. Report the one for O=C(CCCCCCC(=O)Nc1ccc2c(c1)/C(=C/c1ccc[nH]1)C(=O)N2)NO .
[A] active
